# Test system: SW626
# Test Protocol: Confirmatory qHTS for gynecologic anti-cancer compounds from libraries of approved drugs and bioactive compounds; also: nearly all actives have a fitted effect of over 55% in size
# Experimental Parameters: gynecologic cancer cell panel viability, ATPlite luminescence, 48 h; series mostly up to 57.6 µM
Results filed as inconclusive are left out. Calls of active or inactive are those of the source. Calls follow the shape of the dose curve; as a rule, active = well fitted cell-killing curve with a large enough effect; inconclusive = small, poorly fitted or top-dose-only effect, or effect the other way; inactive = no such curve, though single readings can be large or run the other way.
Write down one outcome, taken from label 1 (active), label 0 (inactive)

Test call, this molecule: C=C(C)[C@H]1Cc2c(ccc3c2O[C@@H]2COc4cc(OC)c(OC)cc4[C@@H]2C3=O)O1 label 0

And CCNC(=O)C[C@@H]1N=C(c2ccc(Cl)cc2)c2cc(OC)ccc2-n2c(C)nnc21 ? label 0

Check C[C@H]1CCC/C=C/C2C[C@H](O)C[C@H]2[C@H](O)/C=C/C(=O)O1 (some centres not stated) too. label 1

Also need O=C(O)Cc1ccccc1 , thanks. label 0

Thanks! And CCN1CCN(C(=O)Cc2ccc(Nc3ncc(F)c(Nc4ccc(C(=O)Nc5ccccc5Cl)cc4)n3)cc2)CC1 ? label 0

// query: CCOc1ccccc1-n1c(C(C)N2CCN(C(=O)COc3ccc(Cl)cc3)CC2)nc2ccccc2c1=O (configuration not stated) label 1

Subsequent entry: C[C@]12CC[C@H]3[C@@H](CCC4=CC(=O)CC[C@@H]43)[C@@H]1CC[C@@H]2OC(=O)CCc1ccccc1 label 0
